Catalogue of remaining activity at 0.1 µM readings, one per entry.
Target: androgen receptor (Homo sapiens, UniProt P10275, T878A)
Construct: host or cells: LNCaP.FGC
Sequence (P10275 whole entry T878A): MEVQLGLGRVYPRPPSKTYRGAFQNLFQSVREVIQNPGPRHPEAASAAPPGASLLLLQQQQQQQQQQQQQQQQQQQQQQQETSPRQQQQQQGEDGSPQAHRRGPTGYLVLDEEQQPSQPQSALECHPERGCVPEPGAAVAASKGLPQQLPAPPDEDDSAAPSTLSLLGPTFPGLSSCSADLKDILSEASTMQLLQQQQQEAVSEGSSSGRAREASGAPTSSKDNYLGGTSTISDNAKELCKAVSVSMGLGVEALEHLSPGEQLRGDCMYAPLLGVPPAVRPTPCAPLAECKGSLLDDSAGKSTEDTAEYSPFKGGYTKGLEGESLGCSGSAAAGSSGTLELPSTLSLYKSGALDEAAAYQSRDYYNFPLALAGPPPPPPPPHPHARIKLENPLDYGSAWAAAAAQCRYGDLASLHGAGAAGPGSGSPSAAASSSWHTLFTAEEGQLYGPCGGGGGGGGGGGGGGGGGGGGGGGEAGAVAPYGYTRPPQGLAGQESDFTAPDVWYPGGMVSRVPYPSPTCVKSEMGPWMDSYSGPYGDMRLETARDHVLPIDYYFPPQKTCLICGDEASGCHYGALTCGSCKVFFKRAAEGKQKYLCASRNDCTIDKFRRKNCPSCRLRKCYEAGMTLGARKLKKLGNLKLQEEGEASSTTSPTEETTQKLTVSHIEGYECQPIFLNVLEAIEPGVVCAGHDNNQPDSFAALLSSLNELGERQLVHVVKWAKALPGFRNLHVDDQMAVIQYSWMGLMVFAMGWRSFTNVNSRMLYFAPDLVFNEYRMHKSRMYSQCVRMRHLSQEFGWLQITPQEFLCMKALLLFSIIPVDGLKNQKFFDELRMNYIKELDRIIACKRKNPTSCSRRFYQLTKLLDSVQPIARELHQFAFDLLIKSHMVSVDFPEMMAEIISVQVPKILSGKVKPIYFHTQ
Sequence (Q96SW2 whole entry partner): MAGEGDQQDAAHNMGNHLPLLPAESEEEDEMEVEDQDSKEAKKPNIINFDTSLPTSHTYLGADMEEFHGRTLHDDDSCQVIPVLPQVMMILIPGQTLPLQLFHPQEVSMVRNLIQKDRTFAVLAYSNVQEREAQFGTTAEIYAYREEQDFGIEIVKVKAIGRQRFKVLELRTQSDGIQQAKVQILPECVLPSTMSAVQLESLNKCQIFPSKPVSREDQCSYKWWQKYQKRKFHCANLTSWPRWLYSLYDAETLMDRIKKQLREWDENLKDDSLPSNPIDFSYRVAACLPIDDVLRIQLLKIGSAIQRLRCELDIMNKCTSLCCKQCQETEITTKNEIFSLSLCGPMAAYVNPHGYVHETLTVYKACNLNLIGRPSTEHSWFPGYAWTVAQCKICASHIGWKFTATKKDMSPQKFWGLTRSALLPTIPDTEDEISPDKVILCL
Assay: Androgen receptor degradation assay using Western blot analysis
Format: cell-based
Settings: 24 h, read-out: Androgen Receptor Remaining (%), LNCaP.FGC cells, 100 nM, 24 hr, normalized to GAPDH, untreated cells = 100%
Text: Cells not treated with any of the above-mentioned compounds are used as a negative control. The internal loading control GAPDH was detected using a mouse monoclonal antibody (1:5000) (GTX627408, GeneTex International Corp., HsinChu City, Taiwan R.O.C.) and a goat anti-mouse HRP-conjugated secondary antibody (1:5000 dilution) (C04001, Croyez Bioscience Co., Ltd., Taipei City, Taiwan R.O.C.). […]
Measured Parameter: remaining activity at 0.1 µM (%)

Molecule: CCn1c2c(c3ccc(OCCN4CCN(c5ccc(C(=O)N[C@H]6CC[C@H](Oc7ccc(C#N)c(Cl)c7)CC6)nn5)[C@@H](C)C4)cc31)C(=O)N(C1CCC(=O)NC1=O)C2=O (stereo partly shown)
Unit String: %
Observed: 53

Molecule: CCn1c2c(c3ccc(OCCN4CCC5(CCN(c6ccc(C(=O)N[C@H]7CC[C@H](Oc8ccc(C#N)c(Cl)c8)CC7)nn6)C5)C4)cc31)C(=O)N(C1CCC(=O)NC1=O)C2=O (stereo partly shown)
Unit String: %
Observed: 1

Molecule: Cn1c2c(c3ccc(OCCOC4CCN(c5ccc(C(=O)N[C@H]6CC[C@H](N(C)c7ccc(C#N)c(Cl)c7)CC6)nn5)CC4)cc31)C(=O)N(C1CCC(=O)NC1=O)C2=O (stereo partly shown)
Unit String: %
Observed: 27

Molecule: CCn1c2c(c3ccc(OCCCN4CCC(C5CCN(c6ccc(C(=O)N[C@H]7CC[C@H](N(C)c8ccc(C#N)c(Cl)c8)CC7)nn6)CC5)CC4)cc31)C(=O)N(C1CCC(=O)NC1=O)C2=O (stereo partly shown)
Unit String: %
Observed: 78

Molecule: CCn1c2c(c3ccc(OCCCN4CCN(c5ccc(C(=O)N[C@H]6CC[C@H](Oc7ccc(C#N)c(Cl)c7)CC6)nn5)C[C@H]4C)cc31)C(=O)N(C1CCC(=O)NC1=O)C2=O (stereo partly shown)
Unit String: %
Observed: 40

Molecule: CCn1c2c(c3ccc(OCCCN4CCCN(c5ccc(C(=O)N[C@H]6C(C)(C)[C@H](Oc7ccc(C#N)c(Cl)c7)C6(C)C)nn5)CC4)cc31)C(=O)N(C1CCC(=O)NC1=O)C2=O (stereo partly shown)
Unit String: %
Observed: 72

Molecule: CCn1c2c(c3ccc(OCC(=O)NCC4CCN(c5ccc(C(=O)N[C@H]6CC[C@H](N(C)c7ccc(C#N)c(Cl)c7)CC6)nn5)CC4)cc31)C(=O)N(C1CCC(=O)NC1=O)C2=O (stereo partly shown)
Unit String: %
Observed: 49

Molecule: CCn1c2c(c3ccc(OCCCN4CCC(C5CCN(c6ccc(C(=O)N[C@H]7CC[C@H](Oc8ccc(C#N)c(Cl)c8)CC7)nn6)CC5)CC4)cc31)C(=O)N(C1CCC(=O)NC1=O)C2=O (stereo partly shown)
Unit String: %
Observed: 18

Molecule: CN(c1ccc(C#N)c(Cl)c1)[C@H]1CC[C@H](NC(=O)c2ccc(N3CCN(CCOc4ccc5c6c(n(CC(F)F)c5c4)C(=O)N(C4CCC(=O)NC4=O)C6=O)CC3)nn2)CC1 (stereo partly shown)
Unit String: %
Observed: 42

Molecule: CCn1c2c(c3ccc(OCCCN4CCN(c5ccc(C(=O)N[C@H]6C(C)(C)[C@H](Oc7ccc(C#N)c(Cl)c7)C6(C)C)cc5)CC4)cc31)C(=O)N(C1CCC(=O)NC1=O)C2=O (stereo partly shown)
Unit String: %
Observed: 92
